- Test Target: T1, Ax1 protein, extracellular domain (human, UniProt P30530 26-451)
- T1 construct: extracellular domain; also called Axl; Ark
- T1 sequence (looked up): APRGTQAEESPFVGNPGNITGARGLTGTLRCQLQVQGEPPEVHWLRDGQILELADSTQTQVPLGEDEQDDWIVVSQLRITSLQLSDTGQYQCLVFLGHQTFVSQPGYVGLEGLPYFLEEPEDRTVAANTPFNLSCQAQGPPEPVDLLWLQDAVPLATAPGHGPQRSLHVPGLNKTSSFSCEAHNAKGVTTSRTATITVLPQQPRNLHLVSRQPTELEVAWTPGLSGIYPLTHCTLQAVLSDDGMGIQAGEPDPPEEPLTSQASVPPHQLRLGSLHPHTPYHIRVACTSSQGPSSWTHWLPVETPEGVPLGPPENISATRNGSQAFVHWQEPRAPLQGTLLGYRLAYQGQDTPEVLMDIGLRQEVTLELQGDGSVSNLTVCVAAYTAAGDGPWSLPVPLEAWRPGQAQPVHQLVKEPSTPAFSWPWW
- Procedure Summary: ELISA, mutant diluted 1:9
Observable: Affinity ELISA CPE mutant ratio (1:9, pH 6.0/7.4)

Binder	Endpoint Result
HC-E102V (antibody, V domains shown, CPE single point mutant) VH: EVQLVQSGAEVKKPGATVKISCKVSGYSFTGHTMNWIRQPPGKGLEWIGLIKPSNGGTSYNQKFKGRVTISADKSISTAYLQWSSLKASDTAMYYCAHGHYVSYFAMDYWGQGTLVTVSS VL: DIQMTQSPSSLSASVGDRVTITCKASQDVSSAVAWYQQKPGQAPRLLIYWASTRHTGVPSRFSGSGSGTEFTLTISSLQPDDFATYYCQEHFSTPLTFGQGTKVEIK	2.51
LC-P095E (antibody, V domains shown, CPE single point mutant) VH: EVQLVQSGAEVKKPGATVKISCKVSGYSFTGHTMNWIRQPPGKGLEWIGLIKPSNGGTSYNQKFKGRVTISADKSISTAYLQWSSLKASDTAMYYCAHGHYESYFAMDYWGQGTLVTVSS VL: DIQMTQSPSSLSASVGDRVTITCKASQDVSSAVAWYQQKPGQAPRLLIYWASTRHTGVPSRFSGSGSGTEFTLTISSLQPDDFATYYCQEHFSTELTFGQGTKVEIK	7.51
LC-A051I (antibody, V domains shown, CPE single point mutant) VH: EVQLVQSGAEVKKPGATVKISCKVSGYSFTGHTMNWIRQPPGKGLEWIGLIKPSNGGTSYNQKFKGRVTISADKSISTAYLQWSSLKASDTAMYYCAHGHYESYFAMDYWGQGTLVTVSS VL: DIQMTQSPSSLSASVGDRVTITCKASQDVSSAVAWYQQKPGQAPRLLIYWISTRHTGVPSRFSGSGSGTEFTLTISSLQPDDFATYYCQEHFSTPLTFGQGTKVEIK	2.14
HC-W110P (antibody, V domains shown) VH: EVQLVQSGAEVKKPGATVKISCKVSGYSFTGHTMNWIRQPPGKGLEWIGLIKPSNGGTSYNQKFKGRVTISADKSISTAYLQWSSLKASDTAMYYCAHGHYESYFAMDYPGQGTLVTVSS VL: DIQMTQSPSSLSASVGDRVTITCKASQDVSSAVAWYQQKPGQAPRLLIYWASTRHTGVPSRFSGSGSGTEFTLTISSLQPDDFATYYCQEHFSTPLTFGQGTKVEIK	2.15
LC-W050F (antibody, V domains shown, CPE single point mutant) VH: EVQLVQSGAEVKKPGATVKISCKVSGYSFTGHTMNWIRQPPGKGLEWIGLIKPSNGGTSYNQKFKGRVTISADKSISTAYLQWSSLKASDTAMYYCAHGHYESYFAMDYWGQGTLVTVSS VL: DIQMTQSPSSLSASVGDRVTITCKASQDVSSAVAWYQQKPGQAPRLLIYFASTRHTGVPSRFSGSGSGTEFTLTISSLQPDDFATYYCQEHFSTPLTFGQGTKVEIK	3.5
LC-P095C (antibody, V domains shown, CPE single point mutant) VH: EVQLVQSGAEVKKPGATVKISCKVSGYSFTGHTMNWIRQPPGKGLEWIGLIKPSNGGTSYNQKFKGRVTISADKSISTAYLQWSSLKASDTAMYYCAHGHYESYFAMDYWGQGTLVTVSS VL: DIQMTQSPSSLSASVGDRVTITCKASQDVSSAVAWYQQKPGQAPRLLIYWASTRHTGVPSRFSGSGSGTEFTLTISSLQPDDFATYYCQEHFSTCLTFGQGTKVEIK	2.63
HC-S059I (antibody, V domains shown, CPE single point mutant) VH: EVQLVQSGAEVKKPGATVKISCKVSGYSFTGHTMNWIRQPPGKGLEWIGLIKPSNGGTIYNQKFKGRVTISADKSISTAYLQWSSLKASDTAMYYCAHGHYESYFAMDYWGQGTLVTVSS VL: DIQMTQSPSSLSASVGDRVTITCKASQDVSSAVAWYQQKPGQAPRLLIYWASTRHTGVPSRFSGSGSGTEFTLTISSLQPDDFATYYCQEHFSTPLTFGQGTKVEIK	2.06
LC-H091Y (antibody, V domains shown, CPE single point mutant) VH: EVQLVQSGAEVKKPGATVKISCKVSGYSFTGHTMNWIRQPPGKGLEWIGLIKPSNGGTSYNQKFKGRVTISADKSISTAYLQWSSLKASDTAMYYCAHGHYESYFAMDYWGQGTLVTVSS VL: DIQMTQSPSSLSASVGDRVTITCKASQDVSSAVAWYQQKPGQAPRLLIYWASTRHTGVPSRFSGSGSGTEFTLTISSLQPDDFATYYCQEYFSTPLTFGQGTKVEIK	5.13
LC-A034N (antibody, V domains shown, CPE single point mutant) VH: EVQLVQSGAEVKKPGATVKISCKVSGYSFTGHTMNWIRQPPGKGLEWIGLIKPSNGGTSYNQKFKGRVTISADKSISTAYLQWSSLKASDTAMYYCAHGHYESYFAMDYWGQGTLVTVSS VL: DIQMTQSPSSLSASVGDRVTITCKASQDVSSAVNWYQQKPGQAPRLLIYWASTRHTGVPSRFSGSGSGTEFTLTISSLQPDDFATYYCQEHFSTPLTFGQGTKVEIK	2.4
HC-E102L (antibody, V domains shown, CPE single point mutant) VH: EVQLVQSGAEVKKPGATVKISCKVSGYSFTGHTMNWIRQPPGKGLEWIGLIKPSNGGTSYNQKFKGRVTISADKSISTAYLQWSSLKASDTAMYYCAHGHYLSYFAMDYWGQGTLVTVSS VL: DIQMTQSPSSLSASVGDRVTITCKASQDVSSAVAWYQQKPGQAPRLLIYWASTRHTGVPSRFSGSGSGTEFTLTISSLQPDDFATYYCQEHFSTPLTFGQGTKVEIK	2.7

Data origin: patent US20240199746A1
